Target Or System: T1, SH3 binding peptide: biotin-SGSGILAPPVPPRNTR-COOH (SMILES …)
T1 peptide: Biotin-SGSGILAPPVPPRNTR-OH
Assay: ELISA, GST-PDZ domain on plate, biotin-peptide/streptavidin-alkaline phosphatase complex in solution
*: point of attachment. Biotin = O=C1N[C@H]2[C@H](CS[C@H]2CCCCC(=O)*)N1

| Binder | A405 (A405) |
| --- | --- |
| GST fusion of MMSC2 PDZ domain 7 (P9) (other, GST placed N-terminal as in pGEX vectors; also called PDZ domain number 7; not shown: glutathione S-transferase (GST) encoded by pGEX vectors (Pharmacia)) RRVELWREPSKSLGISIVGGRGMGSRLSNGEVMRGIFIKHVLEDSPAGKNGTLKPGDRIVEVDGMDLRDASHEQAVEAIRKAGNPVVFMVQS | 0.006 |
| GST fusion of MMSC2 PDZ domain 2 (P14) (other, GST placed N-terminal as in pGEX vectors; also called PDZ domain number 2; not shown: glutathione S-transferase (GST) encoded by pGEX vectors (Pharmacia)) ETIELVNDGSGLGFGIIGGKATGVIVKTILPGGVADQHGRLCSGDHILKIGDTDLAGMSSEQVAQVLRQCGNRVKLMIAR | 0.006 |
| GST fusion of MMSC2 PDZ domain 5 (P12) (other, GST placed N-terminal as in pGEX vectors; also called PDZ domain number 5; not shown: glutathione S-transferase (GST) encoded by pGEX vectors (Pharmacia)) QHIELEKGSKGLGFSILDYQDPIDPASTVIIIRSLVPGGIAEKDGRLLPGDRLMFVNDVNLENSSLEEAVEALKGAPSGTVRIGVAK | 0.005 |
| GST fusion of MMSC2 PDZ domain 3 (P13) (other, GST placed N-terminal as in pGEX vectors; also called PDZ domain number 3; not shown: glutathione S-transferase (GST) encoded by pGEX vectors (Pharmacia)) FDVELTKNVQGLGITIAGYIGDKKLEPSGIFVKSITKSSAVEHDGRIQIGDQIIAVDGTNLQGFTNQQAVEVLRHTGQTVLLTLMR | 0.008 |
| GST fusion of MMSC2 PDZ domain 1 (P15) (other, GST placed N-terminal as in pGEX vectors; Adsorbed to ELISA wells; also called PDZ domain number 1; not shown: glutathione S-transferase (GST) encoded by pGEX vectors (Pharmacia)) EVFELLKPPSGGLGFSVVGLRSENRGELGIFVQEIQEGSVAHRDGRLKETDQILAINGQALDQTITHQQAISILQKAKDTVQLVIAR | 0.007 |
